Hello, the source for this data is the PolyMetriX glass transition set, in case you need it.

Provide the reported glass transition temperature of each item.
Answers are plain numbers, in °C.

These recorded examples may help you get a feel for the data.
*CC(*)(CC(=O)OCCCl)C(=O)OCCCl (repeat unit) : 43.00
*c1ncnc(N(CCCCCCCCCCN(*)c2ccccc2)c2ccccc2)n1 (repeat unit) : 55.00
*Oc1ccc(CC(NC(=O)CCc2ccc(OC(=O)CCC(*)=O)cc2)C(=O)OCCCCCC)cc1 (repeat unit) : 53.00
*Oc1ccc(CC(NC(=O)CCc2ccc(OC(=O)COCCOCC(*)=O)cc2)C(=O)OCCCC)cc1 (repeat unit) : 45.00
*C1C(*)C2CC1C(C(=O)OCc1ccccc1)C2C(=O)OCc1ccccc1 (repeat unit) : 277.00
*Cc1cc2cc(C(=O)Nc3ccc(Cc4ccc(NC(=O)c5cc6cc(*)c(OC(=O)COc7ccc8ccc(=O)oc8c7)cc6oc5=O)cc4)cc3)c(=O)oc2cc1OC(=O)COc1ccc2ccc(=O)oc2c1 (repeat unit) : 221.00
*c1c(F)c(F)c(-c2c(F)c(F)c(Oc3ccc(-c4nn(*)c(=O)c5ccccc45)c(F)c3)c(F)c2F)c(F)c1F (repeat unit) : 253.00
*CC(*)(F)C(=O)OCC(F)(F)C(F)(F)C(F)(F)F (repeat unit) : 75.00
*CC(C(C)C)C(COC(=O)c1ccc(C(=O)O*)cc1)C(C)C (repeat unit) : 65.00
*C(=O)Nc1ccc(-c2ccc(NC(=O)c3ccc4c(c3)C(=O)N(c3ccc(Oc5cccc6c(N7C(=O)c8ccc(*)cc8C7=O)cccc56)cc3)C4=O)cc2)cc1 (repeat unit) : 301.00

Field: glass transition temperature. Fill in for each record below.
1. *C(=O)Nc1ccc(Oc2ccc(Oc3ccc(NC(=O)c4ccc5c(c4)C(=O)N(c4ccc(Oc6ccc(C7(c8ccc(Oc9ccc(N%10C(=O)c%11ccc(*)cc%11C%10=O)cc9)cc8)CC8CC7C7CCCC87)cc6)cc4)C5=O)cc3)c(C(C)(C)C)c2)cc1 (repeat unit)
2. *c1ccc(-c2nc3cc(S(=O)(=O)c4ccc5nc(*)c(-c6ccccc6)nc5c4)ccc3nc2-c2ccccc2)cc1 (repeat unit)

# output
[275.00, 277.50]

List the reported glass transition temperature of each compound below.
1. *c1cccc(Oc2cccc(Oc3cccc(N4C(=O)c5c(c(-c6ccccc6)c(-c6ccc(-c7c(-c8ccccc8)c8c(c(-c9ccccc9)c7-c7ccccc7)C(=O)N(*)C8=O)cc6)c(-c6ccccc6)c5-c5ccccc5)C4=O)c3)c2)c1 (repeat unit)
2. *Oc1ccc(C(C)(C)c2ccc(OC(=O)Oc3ccc(Cc4ccc(OC(*)=O)cc4)cc3)cc2)cc1 (repeat unit)
3. *CCN(*)C(=O)c1c(F)cc(F)cc1F (repeat unit)
4. *CCCCCCC(Cl)C(*)Cl (repeat unit)

# output
[280.00, 107.80, 135.00, -18.00]

Please state, for each entry, its recorded glass transition temperature.
1. *C1C(*)C2CC1C(COCc1ccccc1)C2COCc1ccccc1 (repeat unit)
2. *c1ccc(Oc2ccc(N3C(=O)c4ccc(Oc5ccc(C(c6ccc(Oc7ccc8c(c7)C(=O)N(*)C8=O)cc6)(C(F)(F)F)C(F)(F)F)cc5)cc4C3=O)cc2)cc1 (repeat unit)
3. *Nc1ccccc1-c1ccc(NC(=O)c2ccc(C(*)=O)cc2)cc1 (repeat unit)
4. *c1ccc(-c2ccc([Si](CCCC)(CCCC)[Si](*)(CCCC)CCCC)s2)s1 (repeat unit)
5. *CC(C)CC(*)(C)C(=O)OC (repeat unit)
6. *C(F)(F)C(*)(F)OC(F)(F)C(F)(F)F (repeat unit)
7. *CCCCCCNC(=O)CC(C)c1ccc(C(C)CC(=O)N*)cc1 (repeat unit)
8. *CC(*)OC(=O)OC([2H])([2H])[2H] (repeat unit)

# output
[176.00, 226.50, 275.00, -20.00, 16.00, 29.00, 88.00, 55.00]

Each compound below has a reported value. Please supply its glass transition temperature.
1. *C(=O)c1ccc(Oc2ccc(N3C(=O)c4ccc(*)cc4C3=O)cc2)cc1 (repeat unit)
2. *c1cc(C(c2ccc(O)c(N3C(=O)c4ccc(Oc5ccc6c(c5)C(=O)N(*)C6=O)cc4C3=O)c2)(C(F)(F)F)C(F)(F)F)ccc1O (repeat unit)
3. *CC(*)C(=O)Nc1ccccc1 (repeat unit) [Poly(N-phenyl acrylamide)]
4. *c1cccc(NC(=O)c2ccc(OCCOCCOCCOCCOc3ccc(C(=O)Nc4ccc5[nH]c(*)nc5c4)cc3)cc2)c1 (repeat unit)
5. *CC(*)O[N+](=O)[O-] (repeat unit)
6. *c1ccc2c(c1)C(=O)N(c1ccc(S(=O)(=O)c3ccc(S(=O)(=O)c4ccc(N5C(=O)c6ccc(C(*)(C(F)(F)F)C(F)(F)F)cc6C5=O)cc4)cc3)cc1)C2=O (repeat unit)
7. *C(*)C(=O)OC (repeat unit)

# output
297.00
266.00
155.92
155.00
37.50
331.00
85.8

# input Quick one: glass transition temperature for *CCCN(Cc1ccccc1)C(=O)S* (repeat unit) ?
# output 27.00

---

Kindly supply the reported glass transition temperature values for the records listed here.
One number for each entry, in °C.

Solved entries:
*C(=O)c1ccc2c(c1)C(=O)N(c1ccc(Cc3ccc(Cc4cccc(N5C(=O)c6ccc(*)cc6C5=O)c4)cc3)cc1)C2=O (repeat unit) : 317.00
*c1ccc(Oc2ccc(-c3nc4cc(Oc5ccc6nc(-c7ccccc7)c(*)nc6c5)ccc4nc3-c3ccccc3)cc2)cc1 (repeat unit) : 263.00
*c1ccc2c(c1)C(=O)N(c1cccc(Oc3ccc(N4C(=O)c5ccc(-c6c(-c7ccccc7)c(-c7ccccc7)c(-c7ccc(Sc8ccc(-c9c(-c%10ccccc%10)c(-c%10ccccc%10)c(*)c(-c%10ccccc%10)c9-c9ccccc9)cc8)cc7)c(-c7ccccc7)c6-c6ccccc6)cc5C4=O)cc3)c1)C2=O (repeat unit) : 300.00

Please give glass transition temperature for each item listed below.
1. *c1ccc2c(c1)C(=O)N(c1ccc(C(=O)Nc3ccc(Oc4ccc(Oc5ccc(NC(=O)c6ccc(N7C(=O)c8ccc(C(*)(C(F)(F)F)C(F)(F)F)cc8C7=O)cc6)cc5)cc4)cc3)cc1)C2=O (repeat unit)
2. *NC1CCC(CC2CCC(NC(=O)CCCCCCCCCCC(*)=O)CC2)CC1 (repeat unit)

# output
[303.00, 142.00]

---

So I've got a bunch of molecules here, and I need their glass transition temperature values.
Answers are plain numbers, in °C.

I would be grateful if you could provide glass transition temperature for each of the following entries.
1. *Nc1cc(NC(=O)c2ccc(C(*)=O)cc2)cc(-c2nc3ccccc3[nH]2)c1 (repeat unit)
2. *c1ccc(OC(=O)c2cccc(C(=O)Oc3ccc(C4(*)c5ccccc5C(=O)N4C)cc3)c2)cc1 (repeat unit)
3. *c1ccc(Oc2ccc(S(=O)(=O)c3ccc(C)cc3)cc2)c(-n2c(=O)c3cc4c(=O)n(*)c(=O)c4cc3c2=O)c1 (repeat unit)
4. *c1cccc(NC(=O)CCCCCCCC(=O)Nc2cccc(S(*)(=O)=O)c2)c1 (repeat unit)

# output
267.50
285.00
320.00
125.00

---

# binning rule on glass transition temperature: bucket 1: < 100 °C; bucket 2: ≥ 100 °C and < 200 °C; bucket 3: ≥ 200 °C

Recorded results for 2 compounds are shown here.
*/C=C/C(C*)OC (repeat unit) : bucket 1
*Oc1ccc(C(C)(C)c2ccc(OC(=O)Sc3ccc(C(C)(C)c4ccc(SC(*)=O)cc4)cc3)cc2)cc1 (repeat unit) : bucket 2

# input Sort *c1cccc(N2C(=O)c3ccc(Oc4ccc(Oc5ccc(Oc6ccc7c(c6)C(=O)N(*)C7=O)cc5)cc4)cc3C2=O)c1 (repeat unit) into one of the categories.
# output bucket 3

# input Sort into band: */C=C/C1CC(*)C([Si](C)(C)C[Si](C)(C)C)C1 (repeat unit)
# output bucket 1

# input Lab log: *Oc1ccc(S(=O)(=O)c2ccc(Oc3ccc(Cc4ccc(*)cc4)cc3)cc2)cc1 (repeat unit) — assign glass transition temperature category
# output bucket 2

# input Bin? *CCN(CCOC(=O)NCC1(C)CC(NC(=O)O*)CC(C)(C)C1)c1ccc(/N=N/c2ccc([N+](=O)[O-])cc2)cc1 (repeat unit)
# output bucket 2

# input GET /class?item= *CC(*)c1ccc(C(=O)CCC)cc1 (repeat unit)
# output bucket 1

# input Which of the defined bands does the recorded glass transition temperature of *CC(C)(C)CS* (repeat unit) sit within?
# output bucket 1

# input Input *C(=O)Nc1ccc(C(c2ccc(NC(=O)c3ccc4c(c3)C(=O)N(c3ccc(Oc5ccc6ccc(Oc7ccc(N8C(=O)c9ccc(*)cc9C8=O)cc7)cc6c5)cc3)C4=O)cc2)(C(F)(F)F)C(F)(F)F)cc1 (repeat unit) ; output its category
# output bucket 3

# input Class (by measured glass transition temperature) for *Oc1ccc(C2(c3ccc(OC(=O)c4ccc(C(*)=O)cc4)cc3)c3ccccc3C(=O)c3ccccc32)cc1 (repeat unit)
# output bucket 3

---

Classification field: enter Met for glass transition temperature values not below 60 °C, Not met for values below it.

Take a look at these entries with their results.
*Oc1ccc(S(=O)(=O)c2ccc(Oc3ccc(Sc4ccc(*)cc4)cc3)cc2)cc1 (repeat unit) : Met
*Oc1ccc2ccc(Oc3ccc(C(=O)Nc4cccc(Oc5ccc(NC(=O)c6ccc(*)cc6)cc5)c4)cc3)cc2c1 (repeat unit) : Met
*CCCCOC(=O)/C=C/C(=O)O* (repeat unit) : Met

# input Does the reported glass transition temperature for *CC(*)c1ccccc1Cl (repeat unit) [Poly(2-chlorostyrene)] fall at or above the 60 °C mark?
# output Met

# input Kindly determine if glass transition temperature recorded for *c1ccc(C(c2ccc(-n3c(=O)c4cc5c(=O)n(*)c(=O)c5cc4c3=O)cc2)(C(F)(F)F)C(F)(F)F)cc1 (repeat unit) is above or exactly 60 °C.
# output Met

# input Confirm if glass transition temperature reported for the molecule *CCCCCCCC(c1ccc(O)cc1)C(*)c1ccc(O)cc1C (repeat unit) is 60 °C or above.
# output Not met

# input In plain terms: is recorded glass transition temperature at least 60 °C for *CC(*)OCCOc1ccc(/C=C(\C#N)C(=O)OC)cc1 (repeat unit) ?
# output Not met
